Tested on: 786-0 renal
Test: NCI-60 one-dose screen, 48 h
Details: 10 µM
About 83,000 compounds went through this panel and 20% of them were active in at least one assay; those are over-represented in the sample as a whole. Calls of active or inactive are those of the source. How the source made its calls: active means growth percent below 10; inactive means the rest.
Choose one outcome from this list and give only that: True = active, False = inactive

Identify the outcome logged in this assay for the compound shown: COc1ccc(-c2[nH]ncc2-c2cc(OC)c(OC)c(OC)c2)cc1 True

====

System: COLO 205 colon
Test: NCI-60 one-dose screen, 48 h
Settings: 10 µM
This is part of a sample that, as a whole, favours compounds with a hit. Of some 83,000 tested, about 20% had one in any assay. Active and inactive are the calls of the source. The calls were made as follows: active = growth percent below 10; inactive = the rest.
Choose one outcome from this list and give only that: 1 for active, -1 for inactive

CCC(O)c1ccc(Br)cc1NC(=O)c1cccc(Cl)c1 (stereo unspecified)	-1
COc1ccc(OC)c([N+](=O)[O-])c1C=O	-1

// switching to the query compound
Identify the outcome logged in this assay for the compound shown: O=C(NC1CCCC1)c1ccc(N2CCC(NCc3cccc(C(F)(F)F)c3)CC2)cc1 1

====

# growth values compiled below
System: OVCAR-8 ovarian
Assay: NCI-60 one-dose screen, 48 h (100 = growth as untreated, 0 = no growth, -100 = all killed)
Conditions: 10 µM
This is part of a sample that, as a whole, favours compounds with a hit. Of some 83,000 tested, about 20% had one in any assay.
The reply should contain only the number, in %.

Consider the following illustrative entries.
COc1cc(-c2cc(-c3ccc(C)cc3)nc3nc(N)[nH]c(=O)c23)ccc1Oc1ccnc2cc(Cl)ccc12	79.5
O=C(Nc1cccc(F)c1)Nc1cccc(Cl)c1	78.6

What value of measured growth is listed for COc1ccc(-c2n/c(=C\c3c(O)[nH]c4ccccc34)cc3c2=Nc2ccccc2-3)cc1 ? 20.1

====

Tested on: TK-10 renal
Assay: NCI-60 one-dose screen, 48 h (100 = growth as untreated, 0 = no growth, -100 = all killed)
Conditions: 10 µM
About 83,000 compounds went through this panel and 20% of them were active in at least one assay; those are over-represented in the sample as a whole.
value type: growth (%)
The reply should contain only the number, in %.

Consider the following illustrative entries.
O=C(N/N=C/c1ccccc1O)c1ccccc1	46
CCOC(=S)Sc1ccc([N+](=O)[O-])cc1[N+](=O)[O-]	94
CCOC(=O)c1c(Cl)c2c(n1Cc1cccc(OC)c1)-c1oncc1CC2	54.7
COc1cc(C2C(C#N)=C(c3c[nH]c4ccccc34)Nc3nc(N)[nH]c(=O)c32)cc(OC)c1OC (centres undefined)	123

Enter reported growth observed with TK-10 renal for O=[N+]([O-])c1ccc2c(c1)Cc1cc(I)ccc1-2 118

Try this compound next: Cc1ccc([P+](Cc2ccccc2)(c2ccccc2)c2ccccc2)cc1 12.3

Try this compound next: O=C(N/N=C\c1cc(Cl)ccc1O)c1ccncc1 66.3

Try this compound next: COc1cc(C)c2sc3ccccc3c(=O)c2c1NCCN(C)C 61.9

Try this compound next: COc1ccc(-c2cc(/C=C3\C(=O)Nc4cc(Cl)ccc43)[nH]n2)cc1OC 92.7

Try this compound next: COc1cc(C2C=C(c3ccc(Cl)c(Cl)c3)N=C3SC(C)=CN32)cc(OC)c1OC (centres undefined) 94.7

Values were extracted from PubChem BioAssay (NCI).
